# Test system: CAMK1D;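 further: KINOMEscan kinase panel screen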
# EXPERIMENTAL_PARAMETERS: concentration: 1 μM, replicates: in singlicate; n = 1
Hi there, I'd appreciate the recorded %Inh for every entry that follows.
Respond with the bare value in %.

// assay CAMK1D, entry CN(c1ccc(NC(=O)Nc2cccc(Cl)c2)cc1)c1ccnc(N)n1.Cl [GW830707] , %Inh value = 5

Entry O=C(Nc1n[nH]c2nc(-c3ccccc3)ccc12)C1CC1 [SB-708999] , CAMK1D data, %Inh value: 0

Query N#CC1(c2cccc(C(=O)Nc3cccc(Oc4ccc5nc(NC(=O)C6CC6)sc5n4)c3)c2)CC1 on CAMK1D; %Inh returned: 2

// returns %Inh for Nc1cccc(-c2ccc3c(N)n[nH]c3c2)c1 [GSK2193613] with CAMK1D; value = 25

The recorded %Inh with CAMK1D for NCCC(NC(=O)c1cc(Br)c(-c2ccnc3[nH]ccc23)s1)c1ccccc1.O=C(O)C(F)(F)F.O=C(O)C(F)(F)F (stereo not shown) [GSK1307810] was 34

Lab note: molecule COc1ccc(NC(=O)c2ccoc2)cc1-c1ccc(C(=O)NCC2CC2)cc1 [GW810437] tested on CAMK1D; recorded %Inh was 0

COc1cc(Nc2nccc(N3CCC(NC(=O)Nc4ccc5c(c4)OCO5)C3)n2)cc(OC)c1OC (stereo not shown) [GSK1379766] on CAMK1D gives %Inh = 19

Known value: CAMK1D %Inh of the molecule COc1ccc(C2=C(Nc3cccc(O)c3)C(=O)NC2=O)cc1 [SB-390766] equals 27

Bench note, CAMK1D: entry Cc1cccc(Nc2nc(N[C@H]3CCCC[C@H]3N)ncc2C(N)=O)c1.Cl [GSK986310] , its %Inh = 61

The reported CAMK1D %Inh of Cc1cccc(Nc2nc(NCCN)ncc2C(N)=O)c1 [GSK1292139] is 84

For CCn1cnc2c(NCc3ccccc3)ncnc21 [SKF-96418] on CAMK1D, measured %Inh was 1

Response field %Inh (CAMK1D) for item CN(c1ccc2c(c1)nc(NCc1ccccc1)n2C)c1ccnc(Nc2ccc(CS(C)(=O)=O)cc2)n1.Cl [GW811603] : 5

Response field %Inh (CAMK1D) for item CC(=O)Nc1cn2nc(Oc3cccc(NC(=O)c4cccc(C(F)(F)F)c4)c3)ccc2n1 : 24

# lookup: COC(=O)Nc1nc2cc(Oc3ccc(NC(=O)Nc4cccc(SC)c4)cc3)ccc2[nH]1.Cl [GW697999] on CAMK1D, %Inh = 7

# value of %Inh, CAMK1D, item CCn1c(-c2nonc2N)nc2c(-c3ccccc3)ncc(OCCCN)c21.O=C(O)C(F)(F)F.O=C(O)C(F)(F)F [GSK260205] = 6

Measured %Inh (CAMK1D), entry O=C(O)C(F)(F)F.O=c1[nH]ccc2nc(N[C@@H]3CCNC3)nc(Nc3ccc4c(c3)S(=O)(=O)CC4)c12 [GSK2181306] : 98.6
